Target: ligand binding domain of human ROR gamma (Homo sapiens, UniProt P51449)
Construct: NM_001001523; expressed in transfected cells; host or cells: HEK293T
Sequence (P51449 247-497 isoform P51449-2): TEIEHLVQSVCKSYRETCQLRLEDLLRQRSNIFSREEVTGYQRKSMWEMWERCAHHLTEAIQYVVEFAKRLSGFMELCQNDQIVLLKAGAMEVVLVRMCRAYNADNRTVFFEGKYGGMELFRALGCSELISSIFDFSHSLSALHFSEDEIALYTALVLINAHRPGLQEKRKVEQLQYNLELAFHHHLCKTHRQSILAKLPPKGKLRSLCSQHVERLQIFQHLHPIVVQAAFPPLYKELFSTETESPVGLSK
Assay: ROR gamma reporter gene assay (GAL4-RORγ LBD luciferase, Dual-Glo)
Type: cell-based
Conditions: HEK293T cells transfected with pM-ROR gamma, 8 concentrations 3.5 nM to 10.5 μM, 24 h incubation; read-out: result (pIC50, inhibition of RORγ transcriptional activity) (converted)
Description: Luciferase reporter gene assay was used to assess inhibition of RORγ transcriptional activity. ROR gamma expression vector was prepared by inserting the ligand binding domain of human ROR gamma (amino acid 247-497 of Genbank Accession NO. NM_001001523) adjacent to the yeast GAL4 transcription factor DNA binding domain in the expression vector pM (Clontech). […] Data was plotted and pIC50 values were calculated using the XLfit program (ID Business Solutions Ltd.).
readout-label: IC50 (pM)
Give bare numbers, in pM.

Below, 5 compounds whose answers are already recorded.
C[C@]1(C(=O)O)CC[C@H](n2ncc(C(=O)N(CCN3CCCC(F)C3)CC(=O)c3c(Cl)cc(F)cc3Cl)c2C(F)(F)F)CC1 (stereo partly drawn) ... 178000
CC1(C)[C@@H]2C[C@H](N(CC(=O)c3c(Cl)cncc3Cl)C(=O)c3cnn([C@H]4CC[C@](C)(C(=O)O)CC4)c3Cl)C[C@@H]21 ... 30200
Nc1cccc(Cl)c1C(=O)CN(Cc1cc(F)cc(F)c1)C(=O)c1cnn([C@H]2CC[C@H](C(=O)O)CC2)c1C(F)(F)F ... 38000
CCC(F)(CC)CN(CC(=O)c1c(Cl)cncc1Cl)C(=O)c1cnn([C@H]2CC[C@](C)(C(=O)O)CC2)c1Cl ... 91200
CC12CCC(CN(CC(=O)c3c(Cl)cc(F)cc3Cl)C(=O)c3cnn([C@H]4CC[C@](C)(C(=O)O)CC4)c3C(F)(F)F)(CC1)C2 ... 8320

Next compound, please.
INPUT: Provide IC50 value for the following compound: C[C@]1(C(=O)O)CC[C@H](n2ncc(C(=O)N(CC(=O)c3c(Cl)cc(Cl)cc3Cl)CC3(F)CCCC3)c2C(F)(F)F)CC1
OUTPUT: 2950
